Tested on: HCC-2998 colon
Assay: NCI-60 one-dose screen, 48 h (100 = growth as untreated, 0 = no growth, -100 = all killed)
Conditions: 10 µM unless noted
This is part of a sample that, as a whole, favours compounds with a hit. Of some 83,000 tested, about 20% had one in any assay.
Below, each entry is listed with its recorded growth.
observable: growth (%)

{"columns": ["item-smiles", "observable", "recorded-number"],
 "data": [
  ["C=CCOc1ccc2c(c1)CC[C@@H]1[C@@H]2CC[C@@]2(C)[C@H]1CC[C@]2(C)O", "growth", 94.8],
  ["COc1cc2c(cc1OCCCCCn1c(-c3ccc(OCc4ccccc4)cc3)nc3cc(N4CCOCC4)ccc31)N=C[C@@H]1CCCN1C2=O", "growth", 4.97],
  ["Clc1nc(Cl)c2ncn(-c3ccccc3)c2n1", "growth", 100],
  ["O=C(CCc1nnc2sc(-c3ccc(Cl)cc3Cl)nn12)c1nc2ccccc2[nH]1", "growth", -90.3],
  ["COc1ccc(Cn2cc3c(c2-c2ccccc2)CCc2cncnc2-3)cc1", "growth", 53.1],
  ["CC(C)[C@]12O[C@H]1[C@@H]1O[C@]13[C@]1(O[C@H]1C[C@H]1C4=C(CC[C@@]13C)C(=O)OC4)[C@@H]2OC(=O)CN(C)C", "growth", -37.2],
  ["CN(C)CCCN1c2nc3ccccc3cc2Sc2cc3ccccc3nc21", "growth", -71.3],
  ["COC(=O)[C@]12CC[C@@H](C)[C@H](C)[C@@H]1C1=CC[C@@H]3[C@@]4(C)C=C(O)C(=O)[C@@]5(C)COC(=C54)C[C@@]3(C)[C@]1(C)CC2", "growth", -83.3]
]}
